// gcPBM binding intensity (ln) lookup, one value per entry
tested on: PfAP2-LT AP2 domain (GST-tagged); test: gcPBM binding intensity (ln(normalized median fluorescence intensity)); higher = stronger DNA binding
Over roughly 25,000 sequences, “ln(normalized median fluorescence intensity)” has its median near 8.9; the highest 2% begin near 10. The entries come from a sample that favours the highest values as a whole.
Please respond with just the number, no unit label.

TTAACAAAGAAACACACACACACACCCAAAAAAAAA [CACACA_site516] : 10.2
ATAATATATATATAAACACACAAAAAAAATTATATA [CACACA_site1534] : 8.96
ATGGTTTTTATTTTATGTACTTACTAAAATGAATAA [XGTACX_site4317] : 8.52
CAACAAAAGAAACACACACACACAAACACAAAAAAA [CACACA_site3389] : 9.91
TATTTACATATTTATATACACACTTTTGCGTGTCTG [CACACA_site1110] : 9.36

// query Entry under review: TATATATAAAAACACACACACACACCCTATAATTAT [CACACA_site4063] . Reported gcPBM binding intensity (ln)?
// result 10.2

// query Tell me the measured gcPBM binding intensity (ln) of ATATAATATATATATAAACACACAAAAAAAATTATA [CACACA_site8434] , please.
// result 8.97

// query Item under review: TATTTATTAAAACACACACACACACCCACAAAATAA [CACACA_site241] . Reported gcPBM binding intensity (ln)?
// result 10

// query Field request: gcPBM binding intensity (ln) | item: GAATAATCCAAACACACACACACACCCGAATAAATA [CACACA_site482]
// result 10.3

====

test system: PfAP2-LT AP2 domain (GST-tagged); experiment: gcPBM binding intensity (ln(normalized median fluorescence intensity)); higher = stronger DNA binding
Over roughly 25,000 sequences, “ln(normalized median fluorescence intensity)” has its median near 8.9; the highest 2% begin near 10. What follows is part of a selection rich in the highest values, with near analogues and random picks from the rest.
Endpoint name: gcPBM binding intensity (ln)
The response must contain the number and no unit.

Solved cases (3 shown):
TATACACATAGACACACACACATACACGCACATACA [CACACA_site6908] : 9.99
ATAAATAAAAAACACACACACACACCCAAAAAAAAA [CACACA_site2624] : 9.88
CATAGATACATACACGCACACACATATATATATATA [CACACA_site13] : 10.2

// query Requested read-out: gcPBM binding intensity (ln). Entry: AGACATATAATATATACACACATATATATATATATA [CACACA_site1066]
// result 9.93

// query Look up gcPBM binding intensity (ln) for this sequence: TATTTATATTTATATACACACATACATATTTATATT [CACACA_site6535]
// result 9.1

// query What does the record list as gcPBM binding intensity (ln) for AAATAAAAAAAAAAAAAAAATAACTTAAATGGGATA [TGCATGCA_negctrl_site595] ?
// result 8.33

// query What does the record list as gcPBM binding intensity (ln) for AACATACATAGACACACACACACACGCACACGCACA [CACACA_site6373] ?
// result 10.3

// query May I ask what gcPBM binding intensity (ln) has been recorded for AATTGTTCGATATATGCACACAGTTTTGTTATTTTT [CACACA_site1615] ?
// result 9.25

// query Look up gcPBM binding intensity (ln): TTAATATTATGTTAAAGTACTTTATATATATATAAT [XGTACX_site2646]
// result 8.57

// query Could you tell me which gcPBM binding intensity (ln) is on file for ATATATCAAAATAATTGTACAAATTTTATATAATTT [XGTACX_site7249] ?
// result 8.53

// query Would you mind telling me what gcPBM binding intensity (ln) value was observed for TTAACAAATAAACACACACACACACCCAAAAAAAAA [CACACA_site8068] ?
// result 10.3

// query Request the reported gcPBM binding intensity (ln) associated with CACCCATACAGACATACACACACATATATATTAATA [CACACA_site8077]
// result 9.67
